# Subject of test: human Cot catalytic domain (30-397 amino acids) (Homo sapiens)
# Construct: Purified recombinant human Cot catalytic domain (30-397 amino acids) was purchased from Cama Biosciences; purchased Cama Biosciences (so in the source)
# Sequence (P41279 30-397): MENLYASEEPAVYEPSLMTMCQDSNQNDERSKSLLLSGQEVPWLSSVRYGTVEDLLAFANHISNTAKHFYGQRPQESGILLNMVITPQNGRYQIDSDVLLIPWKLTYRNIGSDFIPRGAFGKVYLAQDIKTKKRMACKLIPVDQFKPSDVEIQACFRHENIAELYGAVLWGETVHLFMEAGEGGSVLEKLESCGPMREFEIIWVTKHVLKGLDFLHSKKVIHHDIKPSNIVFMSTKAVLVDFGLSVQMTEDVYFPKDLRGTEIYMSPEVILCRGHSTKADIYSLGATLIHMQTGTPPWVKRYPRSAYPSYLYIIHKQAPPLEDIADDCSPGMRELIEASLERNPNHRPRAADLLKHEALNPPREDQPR
# Assay info: High Throughput Cot Biochemical Assay (KinEASE TR-FRET)
# Condition description: Cot biochemical HTRF (KinEASE TR-FRET) assay; read-out: IC50 HTRF
Measurement kind: pIC50
// pIC50: -log10(molar conc.)

>>> value_observed("CC(C)(C)N1CCC(n2cc([C@@H](Nc3cc(Cl)c4ncc(C#N)c(Nc5ccc(Cl)c(F)c5)c4c3)c3ccc(Cl)cc3)nn2)CC1")
6.70
>>> value_observed("CC(=O)N(C)c1cccc([C@H](Nc2cc(Cl)c3ncc(C#N)c(Nc4cnc(F)c(F)c4)c3c2)c2cn(CC(F)(F)F)nn2)c1")
8.30
>>> value_observed("CC(C)n1cc([C@@H](Nc2cc(Cl)c3ncc(C#N)c(Nc4ccc(F)c(Cl)c4)c3c2)c2cccc(N3CCCCC3=O)c2)nn1")
8.70
>>> value_observed("N#Cc1cnc2c(Cl)cc(N[C@@H](c3cccc(N4CCCC4=O)c3)c3c[nH]nn3)cc2c1Nc1ccc(Cl)c(Cl)c1F")
7.80

Item under review: Cn1cnc(C(Nc2cc(Cl)c3ncc(C#N)c(Nc4ccc(F)c(Cl)c4)c3c2)c2ccc(Cl)cc2)c1 (stereo not drawn) . Reported pIC50?
6.77

Which value of pIC50 has been reported for "CC(C)n1cc([C@@H](Nc2cc(Cl)c3ncc(C#N)c(Nc4ccc(F)c(Cl)c4)c3c2)c2cccc(N3CCCC3=O)c2)nn1" in the records?
8.52

* * *

# Subject of test: human Cot catalytic domain (30-397 amino acids) (Homo sapiens)
# Construct: Purified recombinant human Cot catalytic domain (30-397 amino acids) was purchased from Cama Biosciences; purchased Cama Biosciences (so in the source)
# Assay info: High Throughput Cot Biochemical Assay (KinEASE TR-FRET)
# Condition description: Cot KinEASE TR-FRET (HTRF) biochemical assay, 400 μM ATP; read-out: IC50 HTRF
# Source text: Example 61: High Throughput Cot Biochemical Assay In this assay, Cot-catalyzes the phosphorylation of a XL665-labeled peptide substrate. Europium conjugated phospho-tyrosine specific antibody binds the resulting phosphorylated peptide. […] Purified recombinant human Cot catalytic domain (30-397 amino acids) was purchased from Cama Biosciences. […]
pIC50: −log10 of the molar value.
Give yes (1) when the value for pIC50 is at least 7. Give no (0) when it is less.

Here are 3 compounds together with their reported answers.
>>> group("[2H][C@@](Nc1cc(C#N)c2ncc(C#N)c(NCC(C)(C)C)c2c1)(c1cn(C2(C(F)(F)F)CC2)nn1)c1ccccc1Cl")
"yes (1)"
>>> group("[2H][C@](Nc1cc(Cl)c2ncc(C#N)c(NCC(C)(C)C#N)c2c1)(c1ccc(F)cc1)c1cn(C2CC2)nn1")
"yes (1)"
>>> group("[2H][C@](Nc1cc(Cl)c2ncc(C#N)c(NC(CC)c3cnc(F)c(F)c3)c2c1)(c1ccc(F)cc1)c1cn(C2CC2)nn1 (stereo partly drawn)")
"no (0)"

Next item in the queue.
Textbook exercise: given the entry "[2H][C@](Nc1cc(Cl)c2ncc(C#N)c(NCC(C)(C)C)c2c1)(c1cccc(C#N)c1)c1c[nH]nn1" , state whether its pIC50 is greater than or equal to 7.
yes (1)

* * *

# System: TNFα production in LPS-stimulated human monocytes
# Assay info: Cot Monocyte TNFα Cell Based Assay
# Condition description: Homo sapiens, Monocyte, LPS-stimulated human monocytes, TNFα TR-FRET; read-out: EC50 TNF
Items are presented alongside their recorded pEC50.
In simple prose, pEC50 is minus the logarithm base ten of a concentration in moles per litre.

Please review the entries below; each comes with its answer.
>>> value_observed("CC(C)(C)CNc1c(C#N)cnc2c(C#N)cc(N[C@@H](c3ccc(F)cc3)c3cn(C4(C5CC5)CC4)nn3)cc12 [Example 973]")
7.17
>>> value_observed("CC(C)(C)CNc1c(C#N)cnc2c(C#N)cc(N[C@@H](c3cccc(C4(C#N)CC4)c3)c3cn(C45CC(C4)C5)nn3)cc12 [Example 1129]")
6.83
>>> value_observed("Cc1c(C#N)cccc1[C@H](Nc1cc(Cl)c2ncc(C#N)c(NCC(C)(C)C)c2c1)c1cn(C(CF)CF)nn1 [Example 1102]")
7.20

Recorded pEC50 for CC(C)(C)CNc1c(C#N)cnc2c(Cl)cc(N[C@@H](c3cccc(-n4cncn4)c3)c3cn(C4CC4)nn3)cc12 [Example 1031] , please?
6.93

What value of pEC50 has been recorded for this entry: Cc1c(-c2ccn(C)n2)cccc1[C@H](Nc1cc(Cl)c2ncc(C#N)c(NCC(C)(C)C)c2c1)c1cn(C2(C(F)(F)F)CC2)nn1 [Example 1162]
6.32

What pEC50 value was documented for this compound, Cc1c([C@H](Nc2cc(C#N)c3ncc(C#N)c(NCC(C)(C)C)c3c2)c2cn(C3(C(F)F)CC3)nn2)cccc1-n1cnnn1 [Example 1082] ?
6.58

* * *

# Subject of test: human Cot catalytic domain (30-397 amino acids) (Homo sapiens)
# Construct: Purified recombinant human Cot catalytic domain (30-397 amino acids) was purchased from Cama Biosciences; purchased Cama Biosciences (so in the source)
# Assay info: High Throughput Cot Biochemical Assay (KinEASE TR-FRET)
# Condition description: Cot KinEASE TR-FRET (HTRF) biochemical assay, 400 μM ATP; read-out: IC50 HTRF
pIC50: −log10 of the molar value.
The label depends only on pIC50: Yes if it is at least 7, No if it is smaller.

>>> group("[2H][C@](Nc1cc(Cl)c2ncc(C#N)c(Nc3cccc(Cl)c3OC3CC3)c2c1)(c1ccc(F)cc1)c1cn(C2CC2)nn1 [Example 110]")
"Yes"

Hi, just wondering whether [2H][C@](Nc1cc(C#N)c2ncc(C#N)c(N[C@H](CC)c3ccccc3)c2c1)(c1cccc(C#N)c1)c1cn(C2CC2)nn1 [Example 243] shows pIC50 of 7 or higher.
Yes

Quick check: does [2H][C@](Nc1cc(Cl)c2ncc(C#N)c(Nc3ccccc3OC(F)(F)F)c2c1)(c1ccc(F)cc1)c1cn(C2CC2)nn1 [Example 126] have pIC50 greater than or equal to 7?
No

// inclusive: pIC50 at least 7? input: [2H][C@](Nc1cc(Cl)c2ncc(C#N)c(Nc3cnc(F)c(F)c3)c2c1)(c1ccc(F)cc1)c1cn([C@@H](C)CF)nn1 [Example 360]
Yes

Does the reported pIC50 for [2H][C@](Nc1cc(Cl)c2ncc(C#N)c(Nc3cnc(F)c(F)c3)c2c1)(c1ccc(F)cc1)c1cn(C2CS(=O)(=O)C2)nn1 [Example 359] fall at or above the 7 mark?
Yes

* * *

# Subject of test: human Cot catalytic domain (30-397 amino acids) (Homo sapiens)
# Construct: Purified recombinant human Cot catalytic domain (30-397 amino acids) was purchased from Cama Biosciences; purchased Cama Biosciences (so in the source)
# Assay info: High Throughput Cot Biochemical Assay (KinEASE TR-FRET)
# Condition description: Cot biochemical HTRF (KinEASE TR-FRET) assay; read-out: IC50 HTRF
Measurement kind: IC50

Study these solved cases before continuing.
>>> value_observed("CC[C@@H](Nc1c(C#N)cnc2c(Cl)cc(N[C@@H](c3cccc(C(=O)N4CC(OC)C4)c3)c3c[nH]nn3)cc12)c1ccccc1 [Example 559]")
"14 nM"
>>> value_observed("CC(C)(C)N1CCC(n2cc([C@@H](Nc3cc(Cl)c4ncc(C#N)c(Nc5ccc(F)c(C(F)(F)F)c5)c4c3)c3ccccc3)nn2)CC1 [Example 505]")
"240 nM"

Fill in: IC50 of CCN1CCC(n2cc([C@@H](Nc3cc(F)c4ncc(C#N)c(Nc5ccc(F)c(Cl)c5)c4c3)c3ccccc3)nn2)CC1 [Example 791] is ___
3 nM

Recorded IC50 for N#Cc1cnc2c(Cl)cc(N[C@@H](c3ccc(Cl)cc3)c3cn(C4CCN(C5COC5)CC4)nn3)cc2c1Nc1ccc(F)c(F)c1 [Example 723] , please?
217 nM

Can you look up the measured IC50 of N#Cc1cnc2c(Cl)cc(N[C@@H](c3ccccc3)c3cn(C4CCCC4)nn3)cc2c1Nc1ccc(Cl)c(Cl)c1F [Example 534] for me?
57 nM

* * *

# System: TNFα production in LPS-stimulated human monocytes
# Assay info: Cot Monocyte TNFα Cell Based Assay
# Condition description: second value of the cell IC50/EC50; human monocytes, 50 pg/ml LPS, 4 hours
Measurement kind: IC50/EC50 [nM]: EC50 (TNFα, monocytes) (nM)
The response must be a number in nM with no trailing unit.

The examples below pair each entry with its known result.
>>> value_observed("Cn1cc(C(Nc2cc(Cl)c3ncc(C#N)c(Nc4ccc(F)c(Cl)c4)c3c2)c2ccccc2)nn1 (stereo not shown)")
215
>>> value_observed("CCN1CCC(n2cc(CNc3cc(Cl)c4ncc(C#N)c(Nc5ccc(F)c(Cl)c5)c4c3)nn2)CC1 [Comparative Example 1, reference compound]")
310

Then this molecule:
Find the recorded IC50/EC50 [nM]: EC50 (TNFα, monocytes) belonging to "CCN1CCC(n2cc([C@@H](Nc3cc(Cl)c4ncc(C#N)c(Nc5ccc(F)c(Cl)c5)c4c3)c3ccccc3)nn2)CC1" and report it.
62
